Target: mppGalNAcT-11 (Mus musculus)
Construct: plasmids encoding truncated secreted ppGalNAcTs-1 to −5, -7, -10 and -11
Sequence (Q921L8 30-608 limits assumed): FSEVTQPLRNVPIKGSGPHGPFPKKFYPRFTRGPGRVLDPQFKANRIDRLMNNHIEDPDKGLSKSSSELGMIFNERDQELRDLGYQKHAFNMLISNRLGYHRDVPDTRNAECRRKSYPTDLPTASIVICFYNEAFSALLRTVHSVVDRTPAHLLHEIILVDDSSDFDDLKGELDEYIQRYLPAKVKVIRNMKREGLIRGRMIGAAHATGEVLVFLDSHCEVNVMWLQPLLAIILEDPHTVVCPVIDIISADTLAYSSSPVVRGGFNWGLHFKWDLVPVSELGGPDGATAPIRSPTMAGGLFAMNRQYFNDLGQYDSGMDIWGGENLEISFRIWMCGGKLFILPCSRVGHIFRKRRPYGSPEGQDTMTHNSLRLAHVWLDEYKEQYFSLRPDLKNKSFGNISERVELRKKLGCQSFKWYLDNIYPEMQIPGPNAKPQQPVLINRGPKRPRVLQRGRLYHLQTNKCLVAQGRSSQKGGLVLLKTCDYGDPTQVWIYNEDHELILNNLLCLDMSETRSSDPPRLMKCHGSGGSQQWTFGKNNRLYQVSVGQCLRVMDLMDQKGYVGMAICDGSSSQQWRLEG
Experiment: ELLA for ppGalNAcTs, mppGalNAcT-11
Details: 20 μM UDP-GalNAc, 50 μM EA2 peptide 4
quantity_name: pIC50
Note on units: pIC50 is unitless, being -log10 of a concentration expressed in mol/L.

(Q) Quick one: give measured pIC50 for O=C(CON=Cc1ccc(O)c(O)c1O)NC[C@H]1O[C@@H](n2ccc(=O)[nH]c2=O)[C@H](O)[C@@H]1O [2-68A]
(A) 4.49

(Q) Quick one: give measured pIC50 for O=c1ccn([C@@H]2O[C@H](CON=Cc3ccc(O)c(O)c3O)[C@@H](O)[C@H]2O)c(=O)[nH]1 [1-68A]
(A) 4.41
